Test system: SF-268 CNS
assay.summary: NCI tumour cell line growth inhibition, 48 h
TGI reference

Sample answers from the record:
>>> result("C=C1C(=O)OC2C1CCC(C)C1(O)C=CC(=O)C21C (stereo unspecified)")
"> 10 µM"
>>> result("CCC1=CCN(c2cc(C)ccn2)OC1c1ccccc1 (stereo unspecified)")
"> 100 µM"
>>> result("COc1ccc(-c2nc(-c3nc4cc(Cl)c(F)cc4[nH]3)c3ccccn23)cc1")
"> 100 µM"
>>> result("Cc1ccc(O)c(C2=CC3=NNC(=O)C3C(c3cccc(Cl)c3)C2)c1 (stereo unspecified)")
"> 100 µM"
>>> result("O=C1C[C@@]23CCC4(CC2CCC[C@H]3O1)OCCO4 (stereo partly specified)")
"> 100 µM"

# context switch: different molecule, same TGI
Using the record for O=C1c2cccnc2-c2nc(-c3cccnc3)cc3c2c1nc1ccccc13 , report its TGI.
> 26.5 µM

----------
Tested on: 786-0 renal
assay.summary: NCI tumour cell line growth inhibition, 48 h
quantity.kind: TGI

Reference set (2 entries):
>>> result("CCOC(=O)c1ccc(NC(=O)NC2=NCCS2)cc1")
"> 100 µM"
>>> result("N=c1c2ccccc2sc2nc3ccccc3n12")
"> 100 µM"

Would you kindly look at the next entry?
What value of TGI has been reported for the following molecule? CC(Oc1ccc(Oc2cnc3ccc(Cl)cc3n2)cc1)C(=O)O (stereo not drawn)
> 100 µM

----------
Each entry below lists one item and its recorded TGI value.
System: HCT-116 colon
assay.summary: NCI tumour cell line growth inhibition, 48 h
Quick reminder: number only, in µM, skip the unit.

Observe how each entry below is paired with its result.
>>> result("O=C1C(CO)=C[C@H](O)[C@H]2O[C@@H]12")
225
>>> result("COc1ccc2c(c1)CN([C@@H](C)[C@H]1CC[C@H]3[C@@H]4CC[C@H]5C[C@@H](O)CC[C@]5(C)[C@H]4CC[C@]13C)CO2")
7.22
>>> result("CCOc1cc(/C=C/C(=O)C(C(=O)/C=C/c2ccc(OC(=O)CNc3nc4ccccc4[nH]3)c(OCC)c2)C(=O)CNc2nc3ccccc3[nH]2)ccc1OC(=O)CNc1nc2ccccc2[nH]1")
4.84
>>> result("C/C(=C(/c1ccccc1)c1ccc(OCC(O)CNCCN2CCOCC2)cc1)c1ccccc1 (stereo not given)")
4.02
>>> result("CCCC(=O)N[C@H]1CCc2cc(OC)c(OC)c(OC)c2-c2ccc(SC)c(=O)cc21")
0.176
>>> result("COc1ccc(/C=C2\\CCC(CCN(C)C)(C3=CCCC3)C2=O)cc1 (stereo not given)")
29.1

Would you kindly share the measured TGI for CC(/C=C/C(O)=C1/C(=O)CNC1=O)=C\[C@@H](C)[C@H]1O[C@@]2(C)O[C@H](C(=O)[C@@H]3O[C@@]32C)[C@@H]1C ?
39

----------
System: MCF7 breast
assay.summary: NCI tumour cell line growth inhibition, 48 h
quantity.kind: TGI

Any idea what TGI was measured for O=[N+]([O-])c1ccc(C2ON=C(c3ccccc3)N2C23CC4CC(CC(C4)C2)C3)cc1 (stereo unspecified) ?
> 10 µM

# input compound: CCOC(=O)c1sc2c(c1OC(=O)c1cc(OC)c(OC)c(OC)c1)c(=O)n(-c1ccccc1)c(=S)n2-c1ccccc1 ; wanted: its TGI
> 100 µM

Form field: reported TGI of CCCCc1ccc(-n2sc3ncc(-c4ccccc4)cc3c2=O)cc1
> 100 µM

----------
Measured TGI, listed per entry for reference.
Tested on: HL-60(TB) leukemia
assay.summary: NCI tumour cell line growth inhibition, 48 h

>>> result("O=C(c1cccs1)c1nccc2c1cnc1ccccc12")
"> 100 µM"

Any idea what TGI was measured for O=c1[nH]nc(-c2ccccc2)n1/N=C/c1cccc([N+](=O)[O-])c1 ?
> 100 µM

Requested field: TGI. Item: CCCC(=O)N[C@H]1CCc2cc(OC)c(OC)c(OC)c2-c2ccc(SC)c(=O)cc21
< 0.01 µM

Given C[C@H]1C2Cc3cc(O)ccc3[C@@]1(C)CCN2CCc1ccc(N)cc1 , state its recorded TGI.
> 100 µM

So what's the measured TGI for this one? N#[N+]c1c([O-])c2ccccc2c2ccccc12
> 100 µM

For the compound Nc1c(C(=O)c2cccc(C#CCN3CCCCC3)c2)cnn1-c1ccc(F)cc1 , what TGI is on record?
> 25 µM

----------
Tested on: KM12 colon
assay.summary: NCI tumour cell line growth inhibition, 48 h
Measured TGI, listed per entry for reference.

>>> result("O=C1/C(=C\\c2ccco2)Oc2ccccc21")
"> 100 µM"

Let us move to another entry and its TGI.
Request body: readout TGI, system KM12 colon, query C=CC(C)(C)n1cc(C2=C(O)C(=O)C(c3cn(C(C)(C)C=C)c4ccccc34)=C(O)C2=O)c2ccccc21 . Return the value.
13.5 µM

----------
Tested on: MDA-N
assay.summary: NCI tumour cell line growth inhibition, 48 h
quantity.kind: TGI (µM)
Hi! Could you send only the number? It should be in µM, unit omitted.

>>> result("c1ccc2cc3c(NC4=NCCO4)cccc3cc2c1")
3.57
>>> result("Clc1ccc2c(NCCCCN3OC3c3ccccc3)ccnc2c1 (configuration not stated)")
16.7

Could you now look at the following compound, please?
Which TGI reading was recorded for the compound Nc1ccccc1C#CC(=O)c1cccc(C(F)(F)F)c1 ?
10.6

----------
Test system: SR leukemia
assay.summary: NCI tumour cell line growth inhibition, 48 h
In this section, each of the compounds is paired with its reported TGI.

Sample answers from the record:
>>> result("C=C1C(=O)OC2C1CCC(C)C1(O)C=CC(=O)C21C (centres undefined)")
"> 10 µM"
>>> result("Clc1ccc(-c2cc(-c3cc4cc(Br)ccc4nc3Cl)on2)cc1")
"> 50 µM"
>>> result("COc1ccc(C(=O)c2sc3nc(-c4ccccc4OC)ccc3c2N)cc1OC")
"> 100 µM"

Return reported TGI; argument: CC1CC2(S(=O)(=O)c3ccccc3)ON1CC2S(=O)(=O)c1ccccc1 (centres undefined)
> 100 µM

Find the recorded TGI belonging to Cc1ccc2nc3n[nH]c(N)c3nc2c1 and report it.
> 100 µM

What value of TGI has been recorded for this entry: COc1c2c(nc3ccccc13)-c1cc(C(CC(=O)OC(C)(C)C)C(=O)OC(C)C)c(CO)c(=O)n1C2 (centres undefined)
> 100 µM

Look at this compound and give its reported TGI. CN(C)C(=S)/N=c1\ssc(=S)n1C
> 100 µM

// query TGI value for entry CCCC1(CN2c3ccccc3Sc3ccc(Cl)cc32)CCN(CC)C1 (centres undefined)
> 100 µM

// TGI lookup, key: O=c1[nH]nc(-c2ccccc2)n1/N=C/c1ccccc1O
> 100 µM

----------
# maps each entry to its TGI
Test system: UACC-257 melanoma
assay.summary: NCI tumour cell line growth inhibition, 48 h

Consider the following illustrative entries.
>>> result("COC/N=C(\\NC#N)NCOC")
"> 100 µM"
>>> result("O=c1[nH]nc(Cc2ccccc2)n1/N=C/c1ccco1")
"> 100 µM"
>>> result("O=C1C[C@@]23CCC4(CC2CCC[C@H]3O1)OCCO4 (stereo partly drawn)")
"> 100 µM"
>>> result("CCCCCCCCCc1ccc(OCCOCCOCCOCCOCCOCCOCCOCCOCCO)cc1")
"0.812 µM"
>>> result("COc1ccccc1-c1cc(=O)c2cc(C)c(C)c(C(=O)O)c2o1")
"> 100 µM"
>>> result("CCOC(=O)c1sc2c(c1OC(=O)c1cc(OC)c(OC)c(OC)c1)c(=O)n(-c1ccccc1)c(=S)n2-c1ccccc1")
"> 100 µM"

May I ask what TGI has been recorded for O=c1[nH]c(SCc2cccc([N+](=O)[O-])c2)nc2nc[nH]c12 ?
> 100 µM

Entry COc1ccc(/C=C(\NC(=O)c2ccccc2)c2nc3ccccc3[nH]2)cc1OC has what TGI?
> 100 µM

Could you share which TGI value was measured for N#CC1=C(N)N(/N=C/c2ccccc2)C(c2ccccc2)C1(C#N)C#N (stereo not drawn) ?
23.4 µM

Consider the compound C#CCN(N=O)C(=O)ON1C(=O)CCC1=O and give its measured TGI.
> 100 µM

----------
Test system: SW-620 colon
assay.summary: NCI tumour cell line growth inhibition, 48 h
quantity.kind: TGI

Consider the following illustrative entries.
>>> result("O=Cc1ccc(OC[C@H]2COC(=O)N2)cc1")
"> 100 µM"
>>> result("COc1ccc(Nc2nc(Nc3cc(C)[nH]n3)c3cc(OC)c(OC)cc3n2)cc1")
"1.02 µM"
>>> result("CCN1[C@@H](C(=O)NC23CCC(C(=O)O)(CC2)CC3)[C@H](c2cccc(Cl)c2F)[C@]2(C(=O)Nc3cc(Cl)ccc32)C12CCCCC2")
"17.1 µM"
>>> result("COc1cc(C2c3cc4c(cc3OC(NNS(=O)(=O)c3ccc(C)cc3)C2C)OCO4)cc(OC)c1OC (stereo not drawn)")
"> 100 µM"
>>> result("O=C(N/N=C\\c1cccc2ccccc12)Nc1ccccc1")
"> 100 µM"

Consider the compound CCC(=O)N/S(=N/S(=O)(=O)c1ccccc1)C(Cl)(Cl)Cl (stereo not drawn) and give its measured TGI.
> 100 µM

Which TGI value is on record for CC(O)c1cc2c(s1)C(=O)c1c(C(C)O)csc1C2=O (stereo not drawn) ?
0.833 µM

Could you share which TGI value was measured for Cc1cccc2[nH]c3c(c(O)cc4[nH]c5cccc(C)c5c(=O)c43)c(=O)c12 ?
> 10 µM
